# Study system: HLA-A*23:01
# Assay summary: IEDB peptide-MHC binding, purified MHC/competitive/radioactivity; filed as Kd, often an IC50 or EC50 that approximates it; bounds were set here for any values at or beyond the usual limits of such assays
# Applied conditions: source organism: Dengue virus 4 Philippines/H241/1956
Measured attribute: Kd (µM)

seq=PFGDSYIVI numeric_value=0.723

====

# Study system: HLA-A*26:01
# Assay summary: IEDB peptide-MHC binding, purified MHC/competitive/fluorescence; filed as Kd, often an IC50 or EC50 that approximates it; bounds were set here for any values at or beyond the usual limits of such assays
# Applied conditions: source organism: Orthohantavirus sinnombreense
pKd: −log10 of the molar value.
Measured attribute: pKd

seq=GSFRKICGF study_system=HLA-A*26:01 result="≤ 4.70"
